Data credit: ChEMBL document CHEMBL3988442

Assign Percent Effect to each entry below.
- target system: Tyrosyl-tRNA synthetase, putative (Trypanosoma cruzi (strain CL Brener))
- assay protocol: Trypanosoma cruzi tyrosyl tRNA synthetase (TcYRS) _High Tyrosine SOP
- Type: functional
- Parameters: scale not given: in the data most compounds retested in dose-response had high values
- measurement setup: 30 µM
Numbers only here, please. The scale is %.

Report measured Percent Effect; entry is COCCN1CCC(N(Cc2noc(C3CC3)n2)C(C)=O)C1 (configuration not stated) 0.99

Query Percent Effect for "c1cnc2c(c1)cc([C@H]1CCCO1)n2CCN1CCCCC1" 2.15

Return Percent Effect (reported value) for this compound: CCS(=O)(=O)CCN1CCCC1c1noc(C2CC2)n1 (configuration not stated) -0.493

For Cc1cc(C)n(CC2CN(CCOc3cccc(F)c3)CCO2)n1 (configuration not stated) , write its Percent Effect. 4.43

Return the recorded Percent Effect value; entry: Cc1ccc(C(=O)N2CCC3(CC2)NC(=O)CC3c2ccccc2)cn1 (configuration not stated) 2.08

Output measured Percent Effect for this item: CCc1c(C)nc2n(c1=O)CC(C(=O)Nc1ccccc1F)CS2 (configuration not stated) 6.35

Identify measured Percent Effect corresponding to O=C(CCc1ccccc1)C1CCCN(C(=O)c2ncc(F)cc2F)C1 (configuration not stated) 5.38

Consider the compound N#Cc1cccc(S(=O)(=O)N2CCCCC2CCN2CCCC2=O)c1 (configuration not stated) and give its recorded Percent Effect. 4.17

Name the recorded Percent Effect of the compound listed here: "CCN1CCN(c2nc(C(C)C)nc3c(C)nn(CC)c23)CC1" -2.15

Recall and state the measured Percent Effect for "Cn1nc2c(cc1=O)CN(CC(=O)Nc1ccc(Cl)cn1)CC2" . -2.1

Report measured Percent Effect; entry is COCc1cccc(NC(C)C(=O)N(C)Cc2cccc(F)c2)c1 (configuration not stated) 1.07

Read the entry "Cc1ccc2c(ccn2CCC(=O)NC[C@@H]2CCCN3CCCC[C@H]23)c1" and write its reported Percent Effect. 3.17

Query Percent Effect for "COCCN(C)C(=O)Nc1ccc2c(ccn2CCOC)c1" 4.25

Quickly give me recorded Percent Effect for "CCC(=O)N1CCc2[nH]cnc2C12CCN(C(=O)CCS(C)(=O)=O)CC2" 5.26

Provide Percent Effect value for the following compound: CC(NC1CCN(CCS(C)(=O)=O)CC1)c1ccc(Cl)cc1 (configuration not stated) 0.529

Input COCCOc1ccc(NC(=O)C2CC(=O)N(C)C2)cn1 (configuration not stated) , output reported Percent Effect. 1.48

Give Percent Effect for "CC1CCN(S(=O)(=O)c2cccn(CC(=O)N3CCOCC3)c2=O)CC1" 1.06

Given Cn1cc(CCNC(=O)NC2CCS(=O)(=O)C2)cn1 (configuration not stated) , respond with its Percent Effect. 0

Tell me measured Percent Effect for CC(C)[C@H](NC(=O)NC1CCS(=O)(=O)C1)C(=O)Nc1cccnc1 (some centres not stated) please. 3.17

Determine from records and report Percent Effect for CCc1nc(CN(C(C)=O)C2CCN(CCc3cnn(C)c3)C2)no1 (configuration not stated) -19.2

Give the measured Percent Effect for CCOc1ncccc1CNC(=O)N1CCCC1c1cc(C)no1 (configuration not stated) 8.2

Determine its reported Percent Effect: "CCCNC(=O)Cn1nc(C(C)C)c2cnn(C(C)(C)C)c2c1=O" 8.6

Please look at this compound and report its Percent Effect: "O=C1N(c2ccccc2)Cc2nc(=O)[nH]n21" 4.23

For "Cc1cccnc1NCCNC(=O)[C@H]1CNC[C@@H](C(=O)N2CCCC2)C1" , write its Percent Effect. 5.21

Please report the measured Percent Effect for CCCc1n[nH]c(C2CN(C(=O)C3=COCCC3)CCO2)n1 (configuration not stated) 2.46

Give the reported Percent Effect for this compound. "Cc1cc(=O)n(CC(=O)NCCC(C)C)c(-c2cccc(Cl)c2)n1" 6.45

Return value of Percent Effect for input "Cc1ccc(CN2CC[C@H]3[C@@H]2CCC(=O)N3CCN2CCCC2)s1" , no commentary. -3.19

Tell me Percent Effect reported for "CCS(=O)(=O)CCNC(=O)c1ccc(-c2ccc(C)cc2)cc1F" -14

Give the reported Percent Effect for this compound. "O=C(c1cccc(S(=O)(=O)NCCCc2ccco2)c1)N1CCOCC1" 7.53

Look up Percent Effect of "CN(C)C(=O)CNC(=O)Nc1cccc(Cl)c1SC(F)F" and report it. 1.05

Supply recorded Percent Effect for CS(=O)(=O)NCCCN1CCCCC1c1cc2ccccc2[nH]1 (configuration not stated) here. 1.48

Query Percent Effect for "Cc1cc(=O)n(CC(=O)Nc2ccc(C(N)=O)cc2)nc1C" 1.59

Hello, please tell me recorded Percent Effect for this one: O=C(c1cccn1Cc1cccs1)N1CCCC1Cn1cccn1 (configuration not stated) 0.493

Return Percent Effect for the following compound: Cc1nn(C)c(Cl)c1C1CCCN1C(=O)c1cc(Cl)c[nH]1 (configuration not stated) 7.39

Report Percent Effect for "O=C(CCn1ccc2cc(Br)ccc21)NCc1ccc(C(=O)O)cc1" -6.38

Dear colleague, please send me the reported Percent Effect for "CC[C@H](C)[C@H](NC(=O)c1ccccc1-n1cnnn1)C(=O)OC" when you can. -1.06

For Cc1cc(NC(=O)CN2CCN(c3nccs3)C(C)C2)n(C)n1 (configuration not stated) , write its Percent Effect. 1.98

Consider the compound COCc1nc(C(=O)N2CCCCC2Cn2cc(C)cn2)cs1 (configuration not stated) and give its recorded Percent Effect. -1.91

Supply reported Percent Effect belonging to this compound: CC(C)(CO)NC(=O)C1CCC(=O)N(Cc2ccc(Cl)cc2)C1 (configuration not stated) -3.16

Fill in reported Percent Effect for this entry: COc1ccc(OC)c(C(O)CN2CC(n3cccn3)C2)c1 (configuration not stated) 6.37

Output Percent Effect of "CCn1cnnc1CNC(=O)N1CCN(c2cccs2)CC1" 26.2

Quickly give me recorded Percent Effect for "O=C(NCCc1nnc2n1CCC2)NC1(c2cccc(F)c2)CC1" 0

Respond only with Percent Effect recorded for CCc1nc(CN2CCCC(NCc3ncc(C(C)(C)C)o3)C2)no1 (configuration not stated) 12.4

Give the measured Percent Effect for CC(C)c1n[nH]c(C2CN(Cc3nnc(C4CC4)o3)CCO2)n1 (configuration not stated) -5.42

Please report Percent Effect for the following compound: CC(C)c1nc(CN(C)C2CCN(CC(F)(F)F)C2)no1 (configuration not stated) 4.3

Give a short answer stating reported Percent Effect for "CS(=O)(=O)NCCCNC(=O)c1cccc(-n2cccc2)c1" . 1.06

# return recorded Percent Effect for entry CNc1cc(C)nc(C2CN(Cc3cc[nH]n3)CCO2)c1 (configuration not stated) 0
